Measured OD450 accompanies every entry in the list below.
- system.tested: T1, full-length hCD22-ECD (668aa) displayed on yeast cells (human, UniProt P20273 20-687)
- T1 construct: extracellular domain; Yeast surface display fusion Aga2-HA-(insert)-MYC; also called Bin 8; CD22-ECD Full lenght; not shown: Aga2-HA display fusion partner of vector pPNL6; MYC tag
- T1 sequence (looked up): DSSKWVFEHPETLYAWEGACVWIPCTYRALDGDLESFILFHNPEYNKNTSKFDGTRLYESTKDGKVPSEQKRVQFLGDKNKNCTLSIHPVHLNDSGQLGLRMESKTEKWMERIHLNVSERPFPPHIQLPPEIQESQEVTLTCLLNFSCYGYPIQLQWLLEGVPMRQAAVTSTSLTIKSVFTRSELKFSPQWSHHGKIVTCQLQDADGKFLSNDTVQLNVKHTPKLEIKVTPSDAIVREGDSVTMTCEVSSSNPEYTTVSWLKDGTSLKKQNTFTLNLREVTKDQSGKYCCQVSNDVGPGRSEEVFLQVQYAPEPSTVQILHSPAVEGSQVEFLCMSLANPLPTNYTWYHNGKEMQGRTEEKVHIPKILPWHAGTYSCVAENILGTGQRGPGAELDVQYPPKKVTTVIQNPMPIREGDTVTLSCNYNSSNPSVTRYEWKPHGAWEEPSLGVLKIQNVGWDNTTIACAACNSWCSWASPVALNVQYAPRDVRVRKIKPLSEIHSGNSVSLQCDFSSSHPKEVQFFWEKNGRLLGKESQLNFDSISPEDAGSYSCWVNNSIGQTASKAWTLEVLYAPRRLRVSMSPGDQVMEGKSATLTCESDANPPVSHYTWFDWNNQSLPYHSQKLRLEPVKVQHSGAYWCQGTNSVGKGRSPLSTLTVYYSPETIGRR
- run.description: yeast display cell ELISA, biotinylated sdAb 250 nM
Please reply with the bare figure in OD450 and do not write the unit itself.

The following binders have reported results that may help.
binder: hCD22pas-32 (VHH, single biotin at the VHH C-terminal (biotinylation signal sequence), llama VHH, expressed in E. coli TG1, IMAC purified, monomeric SEC fraction; also called VHH # 15; 6-hCD22 pas-32) VHH: QVQLVESGGGLVQAGGSLRLSCAVSGRIFRSYVLGWFRQAPGKERELVARIGWSDTYYADSVKGRFTISRDNAKNTVDLQMNSLKPEDTAVYYCAANSPPYGPQRDEFGYWGQGTQVTVSS
readout.type: OD450
unit.annotation: OD450
value.reported: 0.289
--
binder: hCD221ug-80 (VHH, single biotin at the VHH C-terminal (biotinylation signal sequence), llama VHH, expressed in E. coli TG1, IMAC purified, monomeric SEC fraction; also called VHH # 1; 2-hCD22 1ug-80) VHH: QVQLVESGGGLVQPGGSLRLSCTFSGFTLDYYVMVWFRQAPGKEREAVSCITSDGVTYYADSVKGRFTISRDNAKNTVYLQMNRVKPEDTAVYYCAVDKPFYDGGIQYTCPVDFDSWGQGAQVTVSS
readout.type: OD450
unit.annotation: OD450
value.reported: 1.81

Let us examine a further case.
Return reported OD450. Input binder: hCD221ug-13 (VHH, single biotin at the VHH C-terminal (biotinylation signal sequence), llama VHH, expressed in E. coli TG1, IMAC purified, monomeric SEC fraction; also called VHH # 21; 1-hCD22 1ug-13) VHH: QVQLVESGGGLVQAGDSLRLSCAGSGGSFSSVTMAWFRQAPGKDREFVAAITWSSPSTYYADSVKGRFTISRDNAKNTVYLQMNSLKPEDTAVYYCAGGRTGRGTSADTDEYNYWGQGTQVTVSS
1.19

Every entry's value here was drawn from patent US20230265185A1.
